// reported LD50 per item
- ASSAY PROTOCOL: in vivo
- TEST CONDITIONS: rat, iv, male or female Wistar rats, i.v. tail vein, Probit regression, confidence interval p=0.05 in parentheses, read-out: LD50 i.v. (acute tox., rat)

SMI: CCNCC(=O)N1c2ccccc2CCc2ccc(NC(=O)OCC)cc21
LD50 (mg/kg): 9.6
--
SMI: CCCCCCNCC(=O)N1c2ccccc2CCc2ccc(NC(=O)OCC)cc21
LD50 (mg/kg): 14
--
SMI: CC(C)OC(=O)Nc1ccc2c(c1)N(C(=O)CNCCO)c1ccccc1CC2
LD50 (mg/kg): 20

###

// reported LD50 per item
- ASSAY PROTOCOL: in vivo
- TEST CONDITIONS: rat, iv, male or female Wistar rats, i.v. tail vein, Probit regression, confidence interval p=0.05 in parentheses, read-out: LD50 i.v. (acute tox., rat)
ASSAY READOUT: LD50 (mg/kg)

COMPOUND: CCNCC(=O)N1c2ccccc2CCc2ccc(NC(=O)OC(C)C)cc21 [No. 13]
TEST VALUE: 16
//
COMPOUND: CCCNCC(=O)N1c2ccccc2CCc2ccc(NC(=O)OCC)cc21 [No. 5]
TEST VALUE: 6.1
//
COMPOUND: CCOC(=O)Nc1ccc2c(c1)N(C(=O)CNC(C)(C)C)c1ccccc1CC2 [No. 6]
TEST VALUE: 5.6
//
COMPOUND: CNCC(=O)N1c2ccccc2CCc2ccc(NC(=O)OC)cc21 [No. 15]
TEST VALUE: 20
//
COMPOUND: CCOC(=O)Nc1ccc2c(c1)N(C(=O)CNC1CCCCC1)c1ccccc1CC2 [No. 8]
TEST VALUE: 3.7
//
COMPOUND: CCCCNCC(=O)N1c2ccccc2CCc2ccc(NC(=O)OCC)cc21 [No. 7]
TEST VALUE: 5
//
COMPOUND: CCOC(=O)Nc1ccc2c(c1)N(C(=O)CNCCO)c1ccccc1CC2 [No. 2]
TEST VALUE: 12
//
COMPOUND: CCOC(=O)Nc1ccc2c(c1)N(C(=O)CN)c1ccccc1CC2 [No. 10]
TEST VALUE: 14
//
COMPOUND: CCOC(=O)Nc1ccc2c(c1)N(C(=O)CNC)c1ccccc1C=C2 [No. 19]
TEST VALUE: 11
//
COMPOUND: CCNCC(=O)N1c2ccccc2CCc2ccc(NC(=O)OC)cc21 [No. 17]
TEST VALUE: 19
//
COMPOUND: CCNCCC(=O)N1c2ccccc2CCc2ccc(NC(=O)OCC)cc21 [No. 21]
TEST VALUE: 12
//
COMPOUND: COC(=O)Nc1ccc2c(c1)N(C(=O)CNCCO)c1ccccc1CC2 [No. 16]
TEST VALUE: 36
//
COMPOUND: CCOC(=O)Nc1ccc2c(c1)N(C(=O)CNCc1ccccc1)c1ccccc1CC2 [No. 1]
TEST VALUE: 13
//
COMPOUND: Cc1cccc(C)c1OCC(C)N (stereo not shown) [Mexiletin, mexiletin, reference compound]
TEST VALUE: 41
//
COMPOUND: CCOC(=O)Nc1ccc2c(c1)N(C(=O)CNC(C)c1ccccc1)c1ccccc1CC2 (stereo not shown) [No. 22]
TEST VALUE: 31
//
COMPOUND: CCOC(=O)Nc1ccc2c(c1)N(C(=O)CCN1CCOCC1)c1ccccc1S2 [Morazicine, morazicine, reference compound]
TEST VALUE: 11
//
COMPOUND: CCOC(=O)Nc1ccc2c(c1)N(C(=O)CNC(C)C)c1ccccc1CC2 [No. 4]
TEST VALUE: 8.2
//
COMPOUND: CCOC(=O)Nc1ccc2c(c1)N(C(=O)CN(C)C)c1ccccc1CC2 [Bonnecor ®, reference compound]
TEST VALUE: 11
//
COMPOUND: CCOC(=O)Nc1ccc2c(c1)N(C(=O)CCNCCO)c1ccccc1CC2 [No. 18]
TEST VALUE: 20

FYI, the data here is from patent US5116974A.
